Give measured IC50 for each item. Keep answers brief.
Target: Nitric oxide synthase 3 (Homo sapiens, UniProt P29474)
Sequence (P29474 whole entry): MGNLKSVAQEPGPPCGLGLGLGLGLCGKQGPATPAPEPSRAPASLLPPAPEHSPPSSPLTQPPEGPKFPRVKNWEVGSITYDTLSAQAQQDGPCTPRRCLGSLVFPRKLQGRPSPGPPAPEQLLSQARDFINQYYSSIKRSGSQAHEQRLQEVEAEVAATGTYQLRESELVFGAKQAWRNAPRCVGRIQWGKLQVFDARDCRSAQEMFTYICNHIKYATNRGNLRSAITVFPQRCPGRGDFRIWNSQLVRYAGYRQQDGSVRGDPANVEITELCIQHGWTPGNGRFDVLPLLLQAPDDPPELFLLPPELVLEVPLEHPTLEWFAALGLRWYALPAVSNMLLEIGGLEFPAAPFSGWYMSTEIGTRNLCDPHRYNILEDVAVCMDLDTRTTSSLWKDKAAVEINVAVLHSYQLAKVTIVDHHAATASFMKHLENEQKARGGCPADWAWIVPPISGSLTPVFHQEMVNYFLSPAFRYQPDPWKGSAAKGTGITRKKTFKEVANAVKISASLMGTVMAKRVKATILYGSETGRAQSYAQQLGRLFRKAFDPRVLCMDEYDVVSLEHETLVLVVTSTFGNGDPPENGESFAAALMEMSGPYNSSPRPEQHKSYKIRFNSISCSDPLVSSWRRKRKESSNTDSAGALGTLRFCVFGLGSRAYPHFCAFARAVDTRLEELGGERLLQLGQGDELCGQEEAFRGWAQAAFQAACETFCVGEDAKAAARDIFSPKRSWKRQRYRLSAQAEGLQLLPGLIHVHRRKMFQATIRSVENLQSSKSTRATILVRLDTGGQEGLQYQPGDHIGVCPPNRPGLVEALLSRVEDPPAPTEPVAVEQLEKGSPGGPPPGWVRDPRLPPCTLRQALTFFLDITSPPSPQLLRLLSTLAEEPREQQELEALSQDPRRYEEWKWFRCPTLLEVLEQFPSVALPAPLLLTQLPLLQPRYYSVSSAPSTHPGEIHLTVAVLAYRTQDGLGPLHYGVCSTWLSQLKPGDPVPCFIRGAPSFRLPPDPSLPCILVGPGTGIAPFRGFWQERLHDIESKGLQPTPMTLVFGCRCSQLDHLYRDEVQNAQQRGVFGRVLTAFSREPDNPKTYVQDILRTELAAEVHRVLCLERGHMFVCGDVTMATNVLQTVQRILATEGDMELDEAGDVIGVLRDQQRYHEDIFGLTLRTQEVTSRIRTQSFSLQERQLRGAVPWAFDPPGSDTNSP
Test: Inhibition of human recombinant eNOS expressed in Sf9 cells assessed as conversion of [3H]-L-arginine to [3H]-L-citrulline by radiometric method
Answers are plain numbers, in µM.

CN1CCC[C@@H]1CCn1ccc2cc(NC(=N)c3cccs3)ccc21    3.37

Note: attention shifts to another entry.
Name the reported IC50 value associated with the molecule "CN1CCC[C@H]1CCn1ccc2cc(NC(=N)c3cccs3)ccc21"
1.92

###

Target: Nitric oxide synthase, inducible (Homo sapiens, UniProt P35228)
Sequence (P35228 whole entry): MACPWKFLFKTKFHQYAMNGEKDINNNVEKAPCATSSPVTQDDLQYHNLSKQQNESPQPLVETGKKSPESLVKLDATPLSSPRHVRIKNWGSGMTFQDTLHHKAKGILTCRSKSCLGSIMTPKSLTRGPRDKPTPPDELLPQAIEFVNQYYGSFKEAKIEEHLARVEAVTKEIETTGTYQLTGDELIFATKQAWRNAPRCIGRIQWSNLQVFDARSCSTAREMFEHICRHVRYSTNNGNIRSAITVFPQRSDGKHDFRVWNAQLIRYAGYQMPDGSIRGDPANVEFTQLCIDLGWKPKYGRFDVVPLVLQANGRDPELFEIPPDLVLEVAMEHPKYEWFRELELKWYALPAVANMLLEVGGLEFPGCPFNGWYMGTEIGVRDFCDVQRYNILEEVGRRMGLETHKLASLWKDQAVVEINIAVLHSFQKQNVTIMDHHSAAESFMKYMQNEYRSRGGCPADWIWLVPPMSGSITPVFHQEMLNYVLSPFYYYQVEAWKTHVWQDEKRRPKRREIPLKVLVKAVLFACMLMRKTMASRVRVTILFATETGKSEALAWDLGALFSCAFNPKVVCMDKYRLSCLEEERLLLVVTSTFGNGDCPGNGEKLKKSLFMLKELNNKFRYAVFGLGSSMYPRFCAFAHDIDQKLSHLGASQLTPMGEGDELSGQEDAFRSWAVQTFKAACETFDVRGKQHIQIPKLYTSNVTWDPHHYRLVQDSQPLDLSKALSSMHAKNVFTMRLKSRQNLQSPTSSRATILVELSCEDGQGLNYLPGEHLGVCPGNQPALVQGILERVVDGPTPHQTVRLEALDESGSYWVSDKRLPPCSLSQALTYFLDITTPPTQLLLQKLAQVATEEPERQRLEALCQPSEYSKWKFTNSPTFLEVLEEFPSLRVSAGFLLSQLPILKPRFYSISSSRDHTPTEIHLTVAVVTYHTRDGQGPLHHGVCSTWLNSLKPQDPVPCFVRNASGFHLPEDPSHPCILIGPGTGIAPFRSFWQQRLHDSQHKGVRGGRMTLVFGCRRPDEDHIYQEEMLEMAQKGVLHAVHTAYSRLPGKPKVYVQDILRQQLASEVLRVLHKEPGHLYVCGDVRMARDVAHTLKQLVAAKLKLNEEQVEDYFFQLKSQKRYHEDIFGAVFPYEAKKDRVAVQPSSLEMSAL
Test: Inhibition of human recombinant iNOS expressed in Sf9 cells assessed as conversion of [3H]-L-arginine to [3H]-L-citrulline by radiometric method
quantity: IC50 (µM)
One number for each entry, in µM.

Please review the following examples before continuing.
N=C(Nc1ccc2c(ccn2CCCN2CCOCC2)c1)c1cccs1    41.6
CN(C)CCn1ccc2cc(NC(=N)c3cccs3)ccc21    15.7
CN1CCC[C@@H]1CCn1ccc2cc(NC(=N)c3cccs3)ccc21    22
CN1CCCCC1CCn1ccc2cc(NC(=N)c3cccs3)ccc21 (stereo unspecified)    9.8
CN1CCC[C@H]1CCn1ccc2cc(NC(=N)c3cccs3)ccc21    17
CN1CCCC(n2ccc3cc(NC(=N)c4ccco4)ccc32)CC1 (single isomer, unassigned; (-))    20
N=C(Nc1ccc2c(ccn2CCCNC23CC4CC(CC(C4)C2)C3)c1)c1cccs1    18
N=C(Nc1ccc2c(ccn2CCCNC2CC2)c1)c1cccs1    34

For the 3 molecules below, give their IC50 values.
1. N=C(Nc1ccc2c(ccn2CCN2CCCCC2)c1)c1cccs1
2. CN1CCCC(n2ccc3cc(NC(=N)c4ccco4)ccc32)CC1 (stereo in doubt; (+)-15)
3. CN1CCCC1CCn1ccc2cc(NC(=N)c3cccs3)ccc21 (racemic)

4.61
73
14

Taken from ChEMBL document CHEMBL1821699.
